Entries and their z-score of subpopulation abundance values follow.
test system: Saccharomyces cerevisiae BY4741 SeMeCo community; assay: z-score of subpopulation abundance vs DMSO median, subpopulation auxotrophic for U; higher = larger share of this subpopulation than in DMSO controls; conditions: 10 µM; 24 h; SM minimal medium; subpopulation (auxotrophy): U
Counter-ions that a name gives are not always drawn.
Answer with a bare number; do not write a unit.

# example entries with known answers
{"MOLECULE": "CCCN1CCCC[C@H]1C(=O)Nc1c(C)cccc1C [Ropivacaine]", "z-score of subpopulation abundance": -0.73}
{"MOLECULE": "C[n+]1ccccc1C=NO [Pralidoxime Iodide]", "z-score of subpopulation abundance": 0.58}
{"MOLECULE": "COc1ccc(C[C@H](N)C(=O)N[C@H]2[C@@H](O)[C@H](n3cnc4c(N(C)C)ncnc43)O[C@@H]2CO)cc1 [Puromycin 2HCl]", "z-score of subpopulation abundance": 0.92}
{"MOLECULE": "O=[N+]([O-])c1ccc(O)c2ncccc12", "z-score of subpopulation abundance": -2.48}
{"MOLECULE": "CN(C/C=C/C#CC(C)(C)C)Cc1cccc2ccccc12 [Terbinafine HCl]", "z-score of subpopulation abundance": 1.03}

// CN1CCOC(c2ccccc2)c2ccccc2C1 (stereo not given) [Nefopam HCl] : z-score of subpopulation abundance value = 0.26

COc1cc(NS(=O)(=O)c2ccc(N)cc2)nc(OC)n1 [SulfadiMethoxine sodium] has a reported z-score of subpopulation abundance of -0.68

The molecule identified as Cc1cc(NS(=O)(=O)c2ccc(N)cc2)no1 [Sulfamethoxazole sodium] registered its z-score of subpopulation abundance at 0.7

The reported value for CC(C)COc1ccc(CNC(=O)N(Cc2ccc(F)cc2)C2CCN(C)CC2)cc1 in terms of z-score of subpopulation abundance is 0.22

Memo: C[C@@H](O)[C@H]1C(=O)N2C(C(=O)O)=C(S[C@@H]3CN[C@H](C(=O)Nc4cccc(C(=O)O)c4)C3)[C@H](C)[C@H]12 [Ertapenem sodium] , reported z-score of subpopulation abundance: -0.15

Quick note, z-score of subpopulation abundance for C=CC[C@@H]1/C=C(\C)C[C@H](C)C[C@H](OC)[C@H]2O[C@@](O)(C(=O)C(=O)N3CCCC[C@H]3C(=O)O[C@H](/C(C)=C/[C@@H]3CC[C@@H](O)[C@H](OC)C3)[C@H](C)[C@@H](O)CC1=O)[C@H](C)C[C@@H]2OC landed at -0.41

So, Cc1cc(-c2ccc(/N=N/c3ccc4c(S(=O)(=O)O)cc(S(=O)(=O)O)c(N)c4c3O)c(C)c2)ccc1/N=N/c1ccc2c(S(=O)(=O)O)cc(S(=O)(=O)O)c(N)c2c1O ? Its z-score of subpopulation abundance was 1.78

Looking up CC(=O)OCC1=C(C(=O)O)N2C(=O)[C@@H](NC(=O)Cc3cccs3)[C@H]2SC1 , I see its z-score of subpopulation abundance listed as -1.22

Note to self: z-score of subpopulation abundance recorded for O=C(O)c1cc(/N=N/c2ccc(O)c(C(=O)O)c2)ccc1O [Olsalazine Sodium] was -0.08

# molecule COC(=O)C1=C(C)NC(C)=C(C(=O)OC2CCCN(Cc3ccccc3)C2)C1c1cccc([N+](=O)[O-])c1 (stereo not given) [Benidipine HCl] ; its z-score of subpopulation abundance = -1.06

Query COc1cc2c(cc1OC)C(=O)C(CC1CCN(Cc3ccccc3)CC1)C2 (stereo not given) [Donepezil HCl] yields z-score of subpopulation abundance of -0.01

Record CC(=O)Oc1ccc(C(=C2CCCCC2)c2ccc(OC(C)=O)cc2)cc1 . Reported z-score of subpopulation abundance: 0.16

Form: molecule = CCC[C@@H]1C[C@@H](C(=O)N[C@@H]([C@H]2O[C@H](SC)[C@H](O)[C@@H](O)[C@H]2O)[C@@H](C)O)N(C)C1 [Lincomycin HCl] ; z-score of subpopulation abundance = -0.24
